biological target: HIV-1 CNE20 envelope (Env) on Env.IMC.LucR virus (HIV-1 clade BC); assay: cell-based or functional assay
Listed next: entries and their corresponding IC50 of virus neutralization (TZM-BL, luciferase).
Assay Readout: IC50 of virus neutralization (TZM-BL, luciferase) (µg/mL)

1) Hydro2 (antibody, V domains shown) VH: ADLVQSGAVVKKPGDSVRISCEAQGYRFPDYIIHWIRRAPGQGPEWMGWMNPMGGQVNIPQKFQGRVSMTRDTSIETAFLDLRGLKSDDTAVYYCVRDRSNGSGKRFESSNWFLDLWGRGTAVTIQS VL: QSALTQPRSVSASPGQSVTISCTGTHNLVSWCQHQPGRAPKLLIYDFNKRPSGVPDRFSGSGSGGTASLTITGLQDDDDAEYFCWAYENFGGGTKLTVL    0.049
2) NglycoSA (antibody, V domains shown) VH: ADLVQSGAVVKKPGDSVRISCEAQGYRFPDYIIHWIRRAPGQGPEWMGWMNPMGGQVNIPWKFQGRVSMTRDTSIETAFLDLRGLKSDDTAVYYCVRDRSNGAGKRFESSNWFLDLWGRGTAVTIQS VL: QSALTQPRSVSASPGQSVTISCTGTHNLVSWCQHQPGRAPKLLIYDFNKRPSGVPDRFSGSGSGGTASLTITGLQDDDDAEYFCWAYEAFGGGTKLTVL    0.05
3) Germ12_NglycoSA_CysCV (antibody, V domains shown) VH: QVDLVQSGAVVKKPGDSVRVSCEAQGYRFPDYIIHWIRRAPGQGPEWMGWMNPMGGQVNIPWKFQGRVSMTRDTSIETAYMDLRGLRSDDTAVYYCVRDRSNGAGKRFESSNWFLDLWGRGTLVTVSS VL: QSALTQPRSVSGSPGQSVTISCTGTHNLVSWVQHQPGRAPKLLIYDFNKRPSGVPDRFSGSGSGGTASLTISGLQDEDDAEYFCWAYEAFGGGTKLTVL    0.059
4) Germ18 (antibody, V domains shown) VH: QVQLVQSGAEVKKPGASVKVSCEASGYRFPDYIIHWIRRAPGQGPEWMGWMNPMGGQVNIPWKFQGRVSMTRDTSIETAYMELRGLRSDDTAVYYCVRDRSNGSGKRFESSNWFLDLWGRGTLVTVSS VL: QSALTQPRSVSGSPGQSVTISCTGTHNLVSWCQHQPGRAPKLLIYDFNKRPSGVPDRFSGSGSGGTASLTISGLQDEDDAEYFCWAYEAFGGGTKLTVL    0.081

All values here come from patent US20210040184A1.
